- TEST DETAILS: Plasma toxicokinetics after single i.v. bolus
- Type: in vivo, Sprague-Dawley rats
- APPLIED CONDITIONS: male, Sprague-Dawley, rat, plasma, intravenous, 0.1 mg/kg, Anatabine 0.1 mg/kg; male; 0.5 hr (2nd 0.5 hr line); read-out: Avg. Conc. rat plasma
MEASURED PARAMETER: concentration at 0.5 h (ng/mL)
Answer with a number only, understood to be in ng/mL.

// query Fill in: concentration at 0.5 h of C1=CCC(c2cccnc2)NC1 (racemic) [Anatabine, 1,2,3,6-tetrahydro-[2,3′]bipyridinyl] is ___
// result 31.7

---

- TEST DETAILS: Plasma pharmacokinetics after oral multi-dose anatabine polacrilex
- Format: in vivo, Sprague-Dawley rats
- APPLIED CONDITIONS: both sexes, Sprague-Dawley, rat, plasma, oral, 2 mg/kg BW, Avg. Conc. of anatabine in plasma, Male and Female, dose group 2, combined male and female, 30 min
- Method: This study consisted of two groups of 8 animals each, 4 males and 4 females. Two formulations were prepared; one for each of the two treatment groups. […] Sample preparation. […] The amount of the test agent in the supernatant was determined by LC/MS/MS. Analysis. Samples were analyzed by LC/MS/MS using an Agilent 6410 mass spectrometer coupled with an Agilent 1200 high pressure liquid chromatography (HPLC) and a CTC PAL chilled autosampler, all controlled by MassHunter software (Agilent). […]
MEASURED PARAMETER: concentration at 30 min (ng/mL)
Express your answer in ng/mL, writing the number without its unit.

// query Record request: concentration at 30 min value, item C1=CCC(c2cccnc2)NC1 (racemic) [Anatabine, 1,2,3,6-tetrahydro-[2,3′]bipyridinyl]
// result 201

---

- TEST DETAILS: Plasma toxicokinetics after single i.v. bolus
- Format: in vivo, Sprague-Dawley rats
- APPLIED CONDITIONS: male, Sprague-Dawley, rat, plasma, intravenous, 1 mg/kg, Anatabine 1.0 mg/kg; male; 6 hr (1st 6 hr line); read-out: Avg. Conc. rat plasma
- Experimental: Six rats (3 males and 3 females) were dosed per dose group. […] Plasma and brain homogenates were stored at −80° C. until analysis. […] Four aliquots of each dose level formulation were collected and stored at −80° C. […] The physical signs of each animal were monitored following administration of the test compound. […] Sample preparation. […] The amount of the test agent in the supernatant was determined by liquid chromatography tandem mass spectrometry (LC/MS/MS). […]
MEASURED PARAMETER: concentration at 6 h (ng/mL)
Just the number please, in ng/mL, no unit attached.

// query // lookup concentration at 6 h for C1=CCC(c2cccnc2)NC1 (racemic) [Anatabine, 1,2,3,6-tetrahydro-[2,3′]bipyridinyl]
// result 18

---

- TEST DETAILS: Plasma toxicokinetics after single i.v. bolus
- Type: in vivo, Sprague-Dawley rats
- APPLIED CONDITIONS: both sexes, Sprague-Dawley, rat, plasma, intravenous, 0.75 mg/kg, Anatabine 0.75 mg/kg; male and female; 2 hr; read-out: Avg. Conc. rat plasma, combined male and female
MEASURED PARAMETER: concentration at 2 h (ng/mL)
Supply the numeric figure in ng/mL, leaving out any unit text.

// query Can you share its concentration at 2 h? I mean this molecule: C1=CCC(c2cccnc2)NC1 (racemic) [Anatabine, 1,2,3,6-tetrahydro-[2,3′]bipyridinyl]
// result 91.7

---

- TEST DETAILS: Plasma pharmacokinetics after oral multi-dose anatabine polacrilex
- Format: in vivo, Sprague-Dawley rats
- APPLIED CONDITIONS: female, Sprague-Dawley, rat, plasma, oral, 0.2 mg/kg BW, Avg. Conc. of anatabine in plasma, dose group 0.2, female, 60 min
- Protocol: This study consisted of two groups of 8 animals each, 4 males and 4 females. Two formulations were prepared; one for each of the two treatment groups. […] Sample preparation. […] The amount of the test agent in the supernatant was determined by LC/MS/MS. Analysis. Samples were analyzed by LC/MS/MS using an Agilent 6410 mass spectrometer coupled with an Agilent 1200 high pressure liquid chromatography (HPLC) and a CTC PAL chilled autosampler, all controlled by MassHunter software (Agilent). […]
MEASURED PARAMETER: concentration at 60 min (ng/mL)
Reply with just the number (in ng/mL).

// query Find the recorded concentration at 60 min belonging to C1=CCC(c2cccnc2)NC1 (racemic) [Anatabine, 1,2,3,6-tetrahydro-[2,3′]bipyridinyl] and report it.
// result 35

---

- TEST DETAILS: Plasma toxicokinetics after single i.v. bolus
- Format: in vivo, Sprague-Dawley rats
- APPLIED CONDITIONS: Sprague-Dawley, rat, plasma, intravenous, 0.75 mg/kg, Concentration of anatabine in rat plasma, Anatabine 0.75 mg/kg, rat plasma, 8 hr, rats of group 3
MEASURED PARAMETER: concentration at 8 h (ng/mL)
// note: answer is a bare numeric in ng/mL

// query Field request: concentration at 8 h | item: C1=CCC(c2cccnc2)NC1 (racemic) [Anatabine, 1,2,3,6-tetrahydro-[2,3′]bipyridinyl]
// result 8

---

- TEST DETAILS: Plasma toxicokinetics after single i.v. bolus
- Format: in vivo, Sprague-Dawley rats
- APPLIED CONDITIONS: both sexes, Sprague-Dawley, rat, plasma, intravenous, 0.75 mg/kg, Anatabine 0.75 mg/kg; male and female; 1 hr; read-out: Avg. Conc. rat plasma, combined male and female
MEASURED PARAMETER: concentration at 1 h
Just so you know, I need the unit written after the number.

// query Requested read-out: concentration at 1 h. Entry: C1=CCC(c2cccnc2)NC1 (racemic) [Anatabine, 1,2,3,6-tetrahydro-[2,3′]bipyridinyl]
// result 162 ng/mL

---

- TEST DETAILS: Plasma toxicokinetics after single i.v. bolus
- Format: in vivo, Sprague-Dawley rats
- APPLIED CONDITIONS: male, Sprague-Dawley, rat, plasma, intravenous, 1 mg/kg, Anatabine 1.0 mg/kg; male; 0.5 hr (2nd 0.5 hr line); read-out: Avg. Conc. rat plasma
MEASURED PARAMETER: concentration at 0.5 h
Enter the number, and then the unit.

// query // concentration at 0.5 h lookup, key: C1=CCC(c2cccnc2)NC1 (racemic) [Anatabine, 1,2,3,6-tetrahydro-[2,3′]bipyridinyl]
// result 399 ng/mL

---

- TEST DETAILS: Plasma toxicokinetics after single i.v. bolus
- Type: in vivo, Sprague-Dawley rats
- APPLIED CONDITIONS: female, Sprague-Dawley, rat, plasma, iv, 1 mg/kg
MEASURED PARAMETER: MRT

// query # get_value(readout='MRT', item= C1=CCC(c2cccnc2)NC1 (racemic) [Anatabine, 1,2,3,6-tetrahydro-[2,3′]bipyridinyl] )
// result 2.8 h

---

- TEST DETAILS: Plasma pharmacokinetics after oral multi-dose anatabine polacrilex
- Type: in vivo, Sprague-Dawley rats
- APPLIED CONDITIONS: male, Sprague-Dawley, rat, plasma, oral, 0.2 mg/kg, Anatabine Concentration in rat plasma, 300 min, individual animals 1A-1D
MEASURED PARAMETER: concentration at 300 min (ng/mL)
The answer is to be given in ng/mL; state only the numeric part.

// query If you can, please state the reported concentration at 300 min value of C1=CCC(c2cccnc2)NC1 (racemic) [Anatabine, 1,2,3,6-tetrahydro-[2,3′]bipyridinyl] .
// result 22

---

- TEST DETAILS: Plasma pharmacokinetics after oral multi-dose anatabine polacrilex
- Type: in vivo, Sprague-Dawley rats
- APPLIED CONDITIONS: male, Sprague-Dawley, rat, plasma, oral, 2 mg/kg, Anatabine Concentration in rat plasma, 540 min, individual animals 3A-3D
MEASURED PARAMETER: concentration at 540 min (ng/mL)
A number alone suffices; assume ng/mL.

// query Which concentration at 540 min value belongs to C1=CCC(c2cccnc2)NC1 (racemic) [Anatabine, 1,2,3,6-tetrahydro-[2,3′]bipyridinyl] ?
// result 214

---

- TEST DETAILS: Plasma toxicokinetics after single i.v. bolus
- Assay type: in vivo, Sprague-Dawley rats
- APPLIED CONDITIONS: Sprague-Dawley, rat, plasma, intravenous, 1 mg/kg, Concentration of anatabine in rat plasma, Anatabine 1.0 mg/kg, rat plasma, 0.5 hr, rats of group 5
MEASURED PARAMETER: concentration at 0.5 h (ng/mL)
Give just the numeric value; ng/mL need not be written.

// query Name the reported concentration at 0.5 h value associated with the compound C1=CCC(c2cccnc2)NC1 (racemic) [Anatabine, 1,2,3,6-tetrahydro-[2,3′]bipyridinyl]
// result 288

---

- TEST DETAILS: Plasma toxicokinetics after single i.v. bolus
- Format: in vivo, Sprague-Dawley rats
- APPLIED CONDITIONS: male, Sprague-Dawley, rat, plasma, intravenous, 1 mg/kg, Anatabine 1.0 mg/kg; male; 4 hr; read-out: Avg. Conc. rat plasma
- Procedure: Six rats (3 males and 3 females) were dosed per dose group. […] Plasma and brain homogenates were stored at −80° C. until analysis. […] Four aliquots of each dose level formulation were collected and stored at −80° C. […] The physical signs of each animal were monitored following administration of the test compound. […] Sample preparation. […] The amount of the test agent in the supernatant was determined by liquid chromatography tandem mass spectrometry (LC/MS/MS). […]
MEASURED PARAMETER: concentration at 4 h (ng/mL)
Write the number in ng/mL without appending the unit.

// query Which concentration at 4 h reading was recorded for the molecule C1=CCC(c2cccnc2)NC1 (racemic) [Anatabine, 1,2,3,6-tetrahydro-[2,3′]bipyridinyl] ?
// result 42.3

Origin of the recorded values: patent US20120196899A1
